system: carrageenin-induced paw edema; test: Inhibitory actions on carrageenin-induced paw edema in rats; assay type: in vivo; settings: Rattus norvegicus, po; 30 mg/kg orally, 60 min before carrageenin; male Wistar rats; 3 hours after induction, vs control group; read-out: Inhibition rate
Please provide measured inhibition in vivo at 30 mg/kg for the entries that follow.
# output: bare number, implied unit %

For the compound O=C(O)C1CCn2c1cc(-c1ccc(F)cc1)c2-c1ccc(F)cc1 (racemic) , give its measured inhibition in vivo at 30 mg/kg value.
47.9

For the compound O=C(O)c1c(-c2ccc(F)cc2)c(-c2ccc(F)cc2)n2c1C(C(=O)O)CC2 (racemic) , give its measured inhibition in vivo at 30 mg/kg value.
42.9

For the compound O=C(O)C1CCn2c1cc(-c1ccc(Cl)cc1)c2-c1ccc(Cl)cc1 (stereo not shown) , give its measured inhibition in vivo at 30 mg/kg value.
52.3

For the compound CC(C)OC(=O)C1CCn2c(-c3ccc(Cl)cc3)c(-c3ccc(Cl)cc3)c(C(=O)O)c21 (racemic) , give its measured inhibition in vivo at 30 mg/kg value.
31.2
